Target: Human SARS Coronavirus Spike Protein (Receptor Binding Domain, His Tag) (Sino 40150-V08B2) (Human SARS Coronavirus), P59594
Experiment: Luminex bead assay, antigen on microspheres, antibody supernatant
Conditions: remark: other sources report otherwise
attribute.measured: Binding signal (MFI)
State the answer as a number, implicitly in MFI.

Reported Binding signal (MFI) for mAb11008 (antibody, V domains shown) VH: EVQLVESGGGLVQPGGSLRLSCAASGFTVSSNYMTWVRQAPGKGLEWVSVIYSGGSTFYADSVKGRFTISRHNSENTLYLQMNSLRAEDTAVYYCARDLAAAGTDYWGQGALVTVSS VL: DIQLTQSPSFLSASVGDRVTITCWASQGISSYLAWYQQKPGKAPKLLIYAASTLQSGVPSRFSGSGSGTEFTLTISSLQPDDFATYYCQHLNSYLYTFGQGTKLEIK was 174

Reported Binding signal (MFI) for mAb11006 (antibody, V domains shown) VH: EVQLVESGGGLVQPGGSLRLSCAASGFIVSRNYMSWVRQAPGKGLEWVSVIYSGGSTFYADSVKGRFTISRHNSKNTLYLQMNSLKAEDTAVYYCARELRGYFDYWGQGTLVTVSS VL: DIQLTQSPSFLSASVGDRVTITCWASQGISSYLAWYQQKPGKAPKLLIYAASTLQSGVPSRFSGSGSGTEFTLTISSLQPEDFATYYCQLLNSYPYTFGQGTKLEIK was 667

Reported Binding signal (MFI) for mAb11004 (antibody, V domains shown) VH: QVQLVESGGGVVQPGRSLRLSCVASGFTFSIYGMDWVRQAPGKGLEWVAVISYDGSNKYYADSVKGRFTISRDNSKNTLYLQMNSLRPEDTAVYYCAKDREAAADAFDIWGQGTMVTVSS VL: DIQMTQSPSSVSASVGDRVTITCRASQGISSWLAWYQQKPGKAPKLLIYAASSLHSGVPSRFSGSGSGTDFTLTISSLQPEDFATYYCQQANSFRLTFGGGTKVEIK was 740

Reported Binding signal (MFI) for mAb10998 (antibody, V domains shown) VH: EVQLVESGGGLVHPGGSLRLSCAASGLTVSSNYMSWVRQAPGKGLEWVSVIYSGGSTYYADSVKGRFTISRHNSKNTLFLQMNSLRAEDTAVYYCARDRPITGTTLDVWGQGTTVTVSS VL: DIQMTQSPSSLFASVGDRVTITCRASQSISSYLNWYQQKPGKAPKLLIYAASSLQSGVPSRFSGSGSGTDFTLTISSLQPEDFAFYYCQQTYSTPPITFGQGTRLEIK was 37
